List of MC4R selectivity vs MC3R values.
- assayed target: human MC3R (Homo sapiens, UniProt P41968)
- Construct: expressed in transfected cells; host or cells: HEK-293 cells stably expressing the GScAMP22F split-luciferase cAMP sensor (parent reporter line from Promega); MC3R clone generated in-house, G418 selection
- Sequence (P41968 whole entry): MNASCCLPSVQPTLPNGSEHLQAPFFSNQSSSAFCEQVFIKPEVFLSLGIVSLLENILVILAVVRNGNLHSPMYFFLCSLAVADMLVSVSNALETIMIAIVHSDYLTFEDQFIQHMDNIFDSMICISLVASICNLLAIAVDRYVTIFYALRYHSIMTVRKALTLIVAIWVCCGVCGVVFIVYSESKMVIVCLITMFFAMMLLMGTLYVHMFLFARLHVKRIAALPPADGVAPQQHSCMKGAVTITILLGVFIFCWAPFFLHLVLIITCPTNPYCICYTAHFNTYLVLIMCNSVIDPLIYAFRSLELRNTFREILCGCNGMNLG
- measurement notes: split-luciferase cAMP sensor assay, agonist mode (measurement window 1), hMC3R
- Format: cell-based
- run conditions: MC4R versus MC3R
Positions of bridges follow the written chain, without caps; N, C: chain ends. Non-standard residues stand in square brackets, D forms with d. Residues, ends and D or L forms follow the SMILES beside them.
Answer with a bare number; do not write a unit.

{"columns": ["compound", "number"],
 "data": [
  ["CC(=O)N[C@H]1CSSC[C@@H](C(N)=O)NC(=O)[C@H](Cc2c[nH]c3ccccc23)NC(=O)[C@H](CCCNC(=N)N)NC(=O)[C@@H](Cc2ccccc2)NC(=O)[C@H](CCCNC(=N)N)NC(=O)[C@@H](C)NC1=O [CTX-1627, cyclo(Cys-D-Ala-Arg-D-Phe-Arg-Trp-Cys)] (Ac-C[dA]R[dF]RWC-NH2; disulfide 1-7 (inferred))", 2.47]
]}

I would be grateful if you could share the reported MC4R selectivity vs MC3R for N=C(N)NCCC[C@@H]1NC(=O)[C@@H](Cc2ccccc2)NC(=O)[C@H](Cc2c[nH]cn2)NC(=O)CNC(=O)CSC[C@@H](C(N)=O)NC(=O)[C@H](Cc2c[nH]c3ccccc23)NC1=O [CTX-1644] ({CH2CO}-GH[dF]RWC-NH2; thioether N-6) .
53

I would be grateful if you could share the reported MC4R selectivity vs MC3R for CC(=O)N[C@H]1CSSC[C@@H](C(N)=O)NC(=O)[C@H](Cc2c[nH]c3ccccc23)NC(=O)[C@H](CCCNC(=N)N)NC(=O)[C@@H](Cc2ccccc2)NC(=O)[C@H](Cc2c[nH]cn2)NC(=O)C(C)(C)NC1=O [CTX-1631, cyclo(Cys-Aib-His-D-Phe-Arg-Trp-Cys)] .
6.91

* * *

- assayed target: human MC3R (Homo sapiens, UniProt P41968)
- Construct: expressed in transfected cells; host or cells: HEK-293 cells stably expressing the GScAMP22F split-luciferase cAMP sensor (parent reporter line from Promega); MC3R clone generated in-house, G418 selection
- measurement notes: split-luciferase cAMP sensor assay, agonist mode (measurement window 1), hMC3R
- Type: cell-based
- run conditions: agonist mode, hMC3R stable cell line; read-out: MC3R cAMP EC50
Positions of bridges follow the written chain, without caps; N, C: chain ends. Non-standard residues stand in square brackets, D forms with d. Residues, ends and D or L forms follow the SMILES beside them. dPhe(4-Br) = N[C@H](Cc1ccc(Br)cc1)C(=O)O; Nle = CCCC[C@H](N)C(=O)O
experimental endpoint: pEC50
Field pEC50 (float): negative decimal logarithm of the concentration in molar.

Example entries begin here.
{"columns": ["compound", "assayed target", "pEC50"],
 "data": [
  ["CC(=O)N[C@@H](CCCNC(=N)N)C(=O)N[C@H]1CSSC[C@@H](C(N)=O)NC(=O)[C@@H](Cc2c[nH]c3ccccc23)NC(=O)[C@H](CCCNC(=N)N)NC(=O)[C@@H](Cc2c[nH]c3ccccc23)NC(=O)[C@H](CCCNC(=N)N)NC(=O)[C@@H](C)NC1=O [CTX-1244] (Ac-RC[dA]R[dW]R[dW]C-NH2; disulfide 2-8 (inferred))", "human MC3R (Homo sapiens, UniProt P41968)", 7.89],
  ["CCCC[C@H](NC(=O)[C@H](CCCNC(=N)N)NC(C)=O)C(=O)N[C@H]1CSSC[C@@H](C(N)=O)NC(=O)[C@@H](Cc2c[nH]c3ccccc23)NC(=O)[C@H](CCCNC(=N)N)NC(=O)[C@@H](Cc2ccc(Br)cc2)NC(=O)[C@H](CCCNC(=N)N)NC1=O [CTX-1613] (Ac-R[Nle]CR[dPhe(4-Br)]R[dW]C-NH2; disulfide 3-8 (inferred))", "human MC3R (Homo sapiens, UniProt P41968)", 8.40]
]}

Value wanted: pEC50 (human MC3R (Homo sapiens, UniProt P41968)) of entry CCCC[C@H](NC(=O)[C@H](CCCNC(=N)N)NC(C)=O)C(=O)N[C@H]1CSSC[C@@H](C(N)=O)NC(=O)[C@@H](Cc2c[nH]c3ccccc23)NC(=O)[C@H](CCCNC(=N)N)NC(=O)[C@@H](Cc2ccc(OC)cc2)NC(=O)[C@H](CCCNC(=N)N)NC1=O [CTX-1615] (Ac-R[Nle]CR[dY](Me)R[dW]C-NH2; disulfide 3-8)
7.57

Value wanted: pEC50 (human MC3R (Homo sapiens, UniProt P41968)) of entry CCCC[C@H](NC(=O)[C@H](CCCNC(=N)N)NC(C)=O)C(=O)N[C@H]1CSSC[C@@H](C(N)=O)NC(=O)[C@H](Cc2c[nH]c3ccccc23)NC(=O)[C@H](CCCNC(=N)N)NC(=O)[C@@H](Cc2ccc(Br)cc2)NC(=O)[C@H](Cc2c[nH]cn2)NC1=O [CTX-1229] (Ac-R[Nle]CH[dPhe(4-Br)]RWC-NH2; disulfide 3-8 (inferred))
8.46

Origin of measurements: patent US20240391954A1
